Recorded measurements of z-score of subpopulation abundance, one per entry
# Tested on: Saccharomyces cerevisiae BY4741 SeMeCo community
# assay text: z-score of subpopulation abundance vs DMSO median, subpopulation auxotrophic for HUM; higher = larger share of this subpopulation than in DMSO controls
# condition context: 10 µM; 24 h; SM minimal medium; subpopulation (auxotrophy): HUM
# print the numeric value only

{"compound": "N#CC(c1ccc(Cl)cc1)c1c(Cl)cc(-n2ncc(=O)[nH]c2=O)cc1Cl (stereo not drawn)", "test value": -0.94}

Attention now turns to another entry.
query: Name the recorded z-score of subpopulation abundance for CC1=C(CC(=O)O)c2cc(F)ccc2/C1=C\c1ccc([S+](C)[O-])cc1 (stereo not drawn) .
result: -0.07

----------
# Test system: Saccharomyces cerevisiae BY4741 SeMeCo community
# assay text: z-score of subpopulation abundance vs DMSO median, subpopulation auxotrophic for HM; higher = larger share of this subpopulation than in DMSO controls
# condition context: 10 µM; 24 h; SM minimal medium; subpopulation (auxotrophy): HM
Structures can show the parent of a compound that is named as a salt.
Recorded measurements of z-score of subpopulation abundance, one per entry
# print the numeric value only

{"compound": "CCN1CCCC1CNC(=O)c1cc(S(N)(=O)=O)ccc1OC (centres undefined) [Sulpiride]", "test value": -0.46}
{"compound": "O=C1OC(CN2CCOCC2)CN1/N=C/c1ccc([N+](=O)[O-])o1 (centres undefined) [Furaltadone HCl]", "test value": 0.11}
{"compound": "O=C1CN2Cc3c(ccc(Cl)c3Cl)N=C2N1 [Anagrelide HCl]", "test value": -0.37}
{"compound": "NC(=O)c1cn(Cc2c(F)cccc2F)nn1 [Rufinamide]", "test value": 0.75}
{"compound": "CN1C2CCCC1CC(NC(=O)c1nn(C)c3ccccc13)C2 (centres undefined) [Granisetron HCl]", "test value": 0.45}
{"compound": "Fc1ccc([C@@H]2CCNC[C@H]2COc2ccc3c(c2)OCO3)cc1 [Paroxetine HCl]", "test value": -0.49}
{"compound": "Clc1ccc(C(Cn2ccnc2)OCc2ccsc2Cl)c(Cl)c1 (centres undefined)", "test value": 3.87}
{"compound": "CN[C@H]1CC[C@@H](c2ccc(Cl)c(Cl)c2)c2ccccc21 [Sertraline HCl]", "test value": -0.87}

Attention now turns to another entry.
query: Name the recorded z-score of subpopulation abundance for CC(C)c1c(C(=O)Nc2ccccc2)c(-c2ccccc2)c(-c2ccc(F)cc2)n1CC[C@@H](O)C[C@@H](O)CC(=O)O [Atorvastatin] .
result: 2.44

----------
# Tested on: Saccharomyces cerevisiae BY4741 SeMeCo community
# assay text: mean cell size (pixel area) (pixels); higher = larger cells
# condition context: 10 µM; 24 h; SM minimal medium
parameter: mean cell size
# print the numeric value only

{"molecule": "CCOC(=O)c1ccc(O)cc1 [Ethylparaben]", "mean cell size": 12.5}
{"molecule": "CN1C(C(=O)Nc2ccccn2)=C(O)c2ccccc2S1(=O)=O [Piroxicam]", "mean cell size": 12.8}
{"molecule": "COc1ccc2[nH]c([S+]([O-])Cc3ncc(C)c(OC)c3C)nc2c1 (stereo not drawn) [Omeprazole]", "mean cell size": 12.3}

query: Name the recorded mean cell size for Cc1nnc(SCC2=C(C(=O)O)N3C(=O)[C@@H](NC(=O)Cn4cnnn4)[C@H]3SC2)s1 [Cefazolin Sodium] .
result: 12.2

query: Name the recorded mean cell size for COC(=O)Nc1nc2cc(C(=O)c3ccc(F)cc3)ccc2[nH]1 [Flubendazole] .
result: 12.2

query: Name the recorded mean cell size for CC(C(=O)O)c1ccc2c(c1)CC(=O)c1ccccc1S2 (stereo not drawn) [Zaltoprofen] .
result: 12.8

query: Name the recorded mean cell size for COc1ccc2c3c1O[C@H]1C[C@@H](O)C=C[C@@]31CCN(C)C2 [Galanthamine] .
result: 12.5

query: Name the recorded mean cell size for CC1(C)S[C@@H]2[C@H](NC(=O)[C@H](N)c3ccccc3)C(=O)N2[C@H]1C(=O)OCOC(=O)[C@@H]1N2C(=O)C[C@H]2S(=O)(=O)C1(C)C [Sultamicillin] .
result: 12.3
